// data source = patent US20050277588A1

The entries below come with measured pIC50 values attached.
# system-name: T1, granulocyte-colony stimulating factor receptor (G-CSFR), purified / soluble receptor used in the binding … (UniProt Q99062 25-627, limits assumed)
# T1 construct: also called G-CSF receptor; soluble G-CSFR harvest
# T1 sequence (looked up): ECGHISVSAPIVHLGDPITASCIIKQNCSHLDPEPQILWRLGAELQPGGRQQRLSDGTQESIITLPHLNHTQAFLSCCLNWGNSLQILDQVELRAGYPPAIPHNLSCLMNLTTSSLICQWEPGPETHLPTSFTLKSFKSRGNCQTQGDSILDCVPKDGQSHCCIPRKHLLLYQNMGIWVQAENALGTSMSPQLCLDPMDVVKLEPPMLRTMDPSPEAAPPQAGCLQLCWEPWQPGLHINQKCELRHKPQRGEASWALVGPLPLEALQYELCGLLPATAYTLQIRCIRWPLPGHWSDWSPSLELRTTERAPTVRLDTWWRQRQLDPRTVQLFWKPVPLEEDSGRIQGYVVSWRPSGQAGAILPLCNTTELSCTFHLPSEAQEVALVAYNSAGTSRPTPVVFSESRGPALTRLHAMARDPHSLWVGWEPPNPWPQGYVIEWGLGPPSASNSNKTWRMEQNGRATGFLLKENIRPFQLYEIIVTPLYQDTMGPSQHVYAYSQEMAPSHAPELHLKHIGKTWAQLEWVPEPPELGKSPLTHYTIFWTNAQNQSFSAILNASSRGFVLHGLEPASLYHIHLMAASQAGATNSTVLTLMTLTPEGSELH
# method-summary: SPA competition with 125I-G-CSF on G-CSFR-coated beads; grade defined in paragraph 137
pIC50: −log10 of the molar value.

| binder | pIC50 |
| --- | --- |
| H-DLWYLESKLEECARRANG-NH2 (also: disulfide at 12, other end not in the chain, T0034 draws this dimer as [H]-...-[NH2]; also called Ex. No. 50) [Example 50 dimer of DLWYLESKLEECARRANG] | ≥ 3.70 |
| LGIEGRTGGGLLDICELKLQECARRCN (also called Ex. No. 56) [Example 56 peptide LGIEGRTGGGLLDICELKLQECARRCN] | ≥ 6.30 |
| CGCHVSPVQIKALC (also called Ex. No. 71) [Example 71 peptide CGCHVSPVQIKALC] | ≥ 3.70 |
| H-LLDIAELKLQECARRCN-OH (not fully specified (bridges); cysteine pairing not given here, also called Ex. No. 61) [Example 61 peptide LLDIAELKLQECARRCN] | ≥ 3.70 |
| H-EQSNSGWVWV-NH2 (also called Ex. No. 35; Ex. 74) [Example 35 peptide NH2-EQSNSGWVWV-CONH2] | ≥ 3.70 |
| GRTGGGLLDICELKLQECARRCN (also called Ex. No. 55) [Example 55 peptide GRTGGGLLDICELKLQECARRCN] | ≥ 6.30 |
| H-EQSNSGWVWVGGGGC-NH2 (also called Ex. No. 45) [Example 45 peptide NH2-EQSNSGWVWVGGGGC-CONH2 (monomer)] | ≥ 3.70 |
